test: chemical genetic growth profiling, strain panel (AID 1159580);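 note: tested at 20 µM; growth read once vehicle control cultures reached saturation at 30 °C; 1 = growth at the plate median or of vehicle wells; lower values mean less growth of the strain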; details: S. cerevisiae deletion strains, growth OD, locus YMR307W, strain GAS1, active compounds read low
The campaign covered roughly 5,500 compounds. About 2,000 (36%) were called active. Not shown: some 18% with an inconclusive outcome. This is one part of the list.
measurementName: normalized growth

compound=Cc1ccc(=O)n(Cc2ccc(Cl)c(Cl)c2)n1 measurementname="normalized growth" measuredvalue="1.06 (inactive)"
compound=Cc1onc(-c2ccccc2Cl)c1C(=O)N[C@@H]1C(=O)N2[C@@H]1SC(C)(C)[C@@H]2C(=O)O measurementname="normalized growth" measuredvalue="1.03 (inactive)"
compound=CC(=O)[O][Hg][c]1ccccc1 measurementname="normalized growth" measuredvalue="0.119 (active)"
compound=CC(=O)[C@@]1(O)CC[C@H]2[C@@H]3CCC4=CC(=O)CC[C@]4(C)[C@H]3CC[C@@]21C measurementname="normalized growth" measuredvalue="0.979 (inactive)"
compound=COc1cccc(Nc2nc3ccccc3s2)c1 measurementname="normalized growth" measuredvalue="0.208 (active)"
compound="C[C@]12CCC(=O)C=C1CCC1C2C(=O)C[C@@]2(C)C1CC[C@]2(O)C(=O)CO (stereo partly specified)" measurementname="normalized growth" measuredvalue="1.03 (inactive)"
compound=CC(C)(C)c1ccc(-c2cc(N)c(C(N)=O)s2)cc1 measurementname="normalized growth" measuredvalue="0.881 (inactive)"
compound=CC(=O)NC(=O)/C(C#N)=C/N1CCN(Cc2ccccc2)CC1 measurementname="normalized growth" measuredvalue="1.11 (inactive)"
compound="O=C1C=C(Cl)CC(c2ccc(C(F)(F)F)cc2)C1 (stereo unspecified)" measurementname="normalized growth" measuredvalue="1.01 (inactive)"
compound=O=C1c2ccccc2C(=O)C1c1ccccc1 measurementname="normalized growth" measuredvalue="1.01 (inactive)"
compound=CC[C@@H](CO)NC(=O)[C@@H]1C=C2c3cccc4[nH]cc(c34)C[C@H]2N(C)C1 measurementname="normalized growth" measuredvalue="0.972 (inactive)"
compound="CC(NCCC(c1ccccc1)c1ccccc1)c1ccccc1 (stereo unspecified)" measurementname="normalized growth" measuredvalue="0.986 (inactive)"
compound=COc1cc(/C=C2/N=C(c3ccccc3I)OC2=O)cc(OC)c1OC measurementname="normalized growth" measuredvalue="0.961 (inactive)"
compound=CCOC([O-])=Nc1c[n+](N2CCOCC2)no1 measurementname="normalized growth" measuredvalue="1.04 (inactive)"
compound=CCCCc1nc(Cl)c(CO)n1Cc1ccc(-c2ccccc2-c2nn[nH]n2)cc1 measurementname="normalized growth" measuredvalue="0.911 (inactive)"
compound=CC1=NN(c2cccc(S(N)(=O)=O)c2)C(=O)C1 measurementname="normalized growth" measuredvalue="1.04 (inactive)"
compound=COc1cccc(C(=O)N/N=C(/C)c2ccccc2O)c1 measurementname="normalized growth" measuredvalue="0.537 (active)"
compound="NC1C[C@H]1c1ccccc1 (stereo partly specified)" measurementname="normalized growth" measuredvalue="0.945 (inactive)"
compound=COc1cc(C=Nc2ccc(F)cc2)cc(OC)c1OC measurementname="normalized growth" measuredvalue="0.938 (inactive)"
compound=CC(C)(C)c1ccc(CSc2nc(N)cc(=O)[nH]2)cc1 measurementname="normalized growth" measuredvalue="0.855 (inactive)"
compound=NC[C@H]1O[C@H](O[C@H]2[C@H](O)[C@@H](O[C@H]3O[C@H](CO)[C@@H](O)[C@H](N)[C@H]3O)[C@H](N)C[C@@H]2N)[C@H](N)C[C@@H]1O measurementname="normalized growth" measuredvalue="1.01 (inactive)"

###

Listed compounds paired with reported normalized growth
experiment: chemical genetic growth profiling, strain panel (AID 1159580);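 note: tested at 20 µM; growth read once vehicle control cultures reached saturation at 30 °C; 1 = growth at the plate median or of vehicle wells; lower values mean less growth of the strain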; details: S. cerevisiae deletion strains, growth OD, locus YLR268W, strain sec22, active compounds read low
Screen size: about 5,500 compounds; about 2,000 (36%) were called active. Inconclusive results (about 18%) are left out. Some of the results follow. Where a SMILES comes first, the peptide text is derived from it. Side-chain parts run from the residue outwards. [ ]: non-standard residue; d: D form. The star is where a group is joined. X1 = CCC(C)C(N)C1=NC(C(=O)*)CS1; Orn = NCCC[CH](N)C(=O)O
measurementName: normalized growth

compound=O=C(CCc1ccc(O)cc1)c1c(O)cc(O)cc1O[C@@H]1O[C@H](CO)[C@@H](O)[C@H](O)[C@H]1O measuredvalue=1
compound="CC1=CC2C(C(C)C)CCC(C)(O)C2CC1 (stereo unspecified)" measuredvalue=0.949
compound="CNC(Cc1c[nH]c2ccccc12)C(=O)O (stereo unspecified)" measuredvalue=1.03
compound=NC(=O)NO measuredvalue=0.998
compound=CC(=O)c1cc2c(cc1O)OC(C)(C)C=C2 measuredvalue=0.99
compound="NCC1OC(OC2C(CO)OC(OC3C(O)C(N)CC(N)C3OC3OC(CO)C(O)CC3N)C2O)C(N)C(O)C1OC1OC(CO)C(O)C(O)C1O (stereo unspecified)" measuredvalue=0.962
compound=NC(=O)N1c2ccccc2C=Cc2ccccc21 measuredvalue=0.993
compound=COc1cc(/C=C/C=O)cc(OC)c1OC measuredvalue=1.03
compound=CC(=O)NO measuredvalue=0.965
compound=CCN(CC)CCNC(=O)c1cc(Cl)c(N)cc1OC measuredvalue=0.963
compound="CC(=O)O[C@H]1CC[C@]2(C)C3CC[C@@]4(C)C(CC5O[C@@]6(CCC(C)CO6)[C@@H](C)C54)C3CC[C@H]2C1 (stereo partly specified)" measuredvalue=0.987
compound=COc1ccc([C@H]2COc3c(ccc(O)c3OC)C2)c(OC)c1O measuredvalue=0.99
compound="CCC(C)C(N)C1=NC(C(=O)NC(CC(C)C)C(=O)NC(CCC(=O)O)C(=O)NC(C(=O)NCCCCC2NC(=O)C(CC(N)=O)NC(=O)C(CC(=O)O)NC(=O)C(Cc3cnc[nH]3)NC(=O)C(Cc3ccccc3)NC(=O)C(C(C)CC)NC(=O)C(CCCN)NC2=O)C(C)CC)CS1 (stereo not drawn) (cyclo(DNK([Ile-Glu-Leu-X1])[Orn]IFH); configuration not given here)" measuredvalue=1.02
compound=NCCc1c[nH]c2ccccc12 measuredvalue=1.06
compound="CC(=O)OC1CCC2(C)C3CC(=O)C4(C)C(CC5OC6(CCC(C)CO6)[C@@H](C)C54)C3CC[C@H]2C1 (stereo partly specified)" measuredvalue=0.984
compound=COc1cc(-c2coc3cc(O[C@@H]4O[C@H](CO)[C@@H](O)[C@H](O)[C@H]4O)c(OC)c(O)c3c2=O)cc(O)c1OC measuredvalue=1.03

###

experiment: chemical genetic growth profiling, strain panel (AID 1159580);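 note: tested at 20 µM; growth read once vehicle control cultures reached saturation at 30 °C; 1 = growth at the plate median or of vehicle wells; lower values mean less growth of the strain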; details: S. cerevisiae deletion strains, growth OD, locus YPL106C, strain sse1, active compounds read low
The whole screen tested about 5,500 compounds, of which about 2,000 (36%) were called active. Roughly 18% stayed inconclusive and do not appear here. This is one part of the list.
Listing of entries alongside the reported normalized growth.
measurementName: normalized growth

molecule=CN(C)CCc1c[nH]c2ccc(CS(=O)(=O)N3CCCC3)cc12 measurementname="normalized growth" measuredvalue=1.02
molecule=Cc1cc(C(C)(C)C)cc(C)c1CC1=NCCN1 measurementname="normalized growth" measuredvalue=0.996
molecule=Cc1cc(=O)n(-c2ccccc2)n1C measurementname="normalized growth" measuredvalue=0.981
molecule=c1ccc2c(Cc3c[nH]c4ccccc34)c[nH]c2c1 measurementname="normalized growth" measuredvalue=1
molecule="COc1cc2c(cc1OC)[C@@]13CCN4CC5=CCOC6CC(=O)N2C1[C@H]6[C@H]5C[C@H]43 (stereo partly specified)" measurementname="normalized growth" measuredvalue=0.971
molecule=CCC1(CC)C(=O)C=CNC1=O measurementname="normalized growth" measuredvalue=1

###

assay: chemical genetic growth profiling, strain panel (AID 1159580);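 note: tested at 20 µM; growth read once vehicle control cultures reached saturation at 30 °C; 1 = growth at the plate median or of vehicle wells; lower values mean less growth of the strain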; settings: S. cerevisiae deletion strains, growth OD, locus YJL095W, strain BCK1 (second series), active compounds read low
About 2,000 (36%) of roughly 5,500 compounds were called active. About 18% were inconclusive and are not listed. The list shows a part of the results. Where a SMILES comes first, the peptide text is derived from it. Side-chain parts run from the residue outwards. [ ]: non-standard residue; d: D form. The star is where a group is joined. X1 = CCC(C)C(N)C1=NC(C(=O)*)CS1; Orn = NCCC[CH](N)C(=O)O
measurementName: normalized growth

compound=CCCCc1nc(Cl)c(CO)n1Cc1ccc(-c2ccccc2-c2nn[nH]n2)cc1 measuredvalue=0.985
compound="CCC(C)C(N)C1=NC(C(=O)NC(CC(C)C)C(=O)NC(CCC(=O)O)C(=O)NC(C(=O)NCCCCC2NC(=O)C(CC(N)=O)NC(=O)C(CC(=O)O)NC(=O)C(Cc3cnc[nH]3)NC(=O)C(Cc3ccccc3)NC(=O)C(C(C)CC)NC(=O)C(CCCN)NC2=O)C(C)CC)CS1 (stereo not drawn) (cyclo(DNK([Ile-Glu-Leu-X1])[Orn]IFH); configuration not given here)" measuredvalue=1.01
compound=COc1cc(-c2coc3cc(O[C@@H]4O[C@H](CO)[C@@H](O)[C@H](O)[C@H]4O)c(OC)c(O)c3c2=O)cc(O)c1OC measuredvalue=1
compound="CCc1cccc2c3c([nH]c12)C(CC)(CC(=O)O)OCC3 (stereo unspecified)" measuredvalue=0.987
compound=O=C(OC[C@H]1O[C@H](OC(=O)c2cc(O)c(O)c(OC(=O)c3cc(O)c(O)c(O)c3)c2)[C@H](OC(=O)c2cc(O)c(O)c(OC(=O)c3cc(O)c(O)c(O)c3)c2)[C@@H](OC(=O)c2cc(O)c(O)c(OC(=O)c3cc(O)c(O)c(O)c3)c2)[C@@H]1OC(=O)c1cc(O)c(O)c(OC(=O)c2cc(O)c(O)c(O)c2)c1)c1cc(O)c(O)c(OC(=O)c2cc(O)c(O)c(O)c2)c1 measuredvalue=0.789
compound=CC[C@H]1OC(=O)[C@H](C)[C@@H](O[C@H]2C[C@@](C)(OC)[C@@H](O)[C@H](C)O2)[C@H](C)[C@@H](O[C@@H]2O[C@H](C)C[C@H](N(C)C)[C@H]2O)[C@](C)(O)C[C@@H](C)[C@@H]2N[C@@H](COCCOC)O[C@H]([C@H]2C)[C@]1(C)O measuredvalue=0.982
compound="CN1C(=O)CCS(=O)(=O)C1c1ccc(Cl)cc1 (stereo unspecified)" measuredvalue=0.977
compound="CC(C)CC1NC(=O)C(CCCN)NC(=O)C(C(C)C)NC(=O)C2CCCN2C(=O)C(Cc2ccccc2)NC(=O)C(CC(C)C)NC(=O)C(CCCN)NC(=O)C(C(C)C)NC(=O)C2CCCN2C(=O)C(Cc2ccccc2)NC1=O (stereo unspecified) (cyclo(FPV[Orn]LFPV[Orn]L); configuration not given here)" measuredvalue=1.02
compound="CC(=O)OCC(=O)[C@@]1(O)CCC2C3CCC4=CC(=O)CC[C@]4(C)C3[C@@H](O)C[C@@]21C (stereo partly specified)" measuredvalue=1.03
compound="C[C@]12CCC(=O)C=C1CCC1C2C(=O)C[C@@]2(C)C1CC[C@]2(O)C(=O)CO (stereo partly specified)" measuredvalue=1.01
compound="COC1(C)CCC2OC2(C)CCC2C1CC2(C)C (stereo unspecified)" measuredvalue=1.01
compound=CC1(C)S[C@@H]2[C@H](NC(=O)[C@H](C(=O)O)c3cccs3)C(=O)N2[C@H]1C(=O)O measuredvalue=1
compound="C[C@]12CCC(=O)C=C1CCC1C2[C@@H](O)C[C@@]2(C)C1CC[C@]2(O)C(=O)COC(=O)CCC(=O)O (stereo partly specified)" measuredvalue=1.02
compound="CC(=O)Oc1cc2c(c(C)c1OC(C)=O)CC1OC13C2(C)CCC1(C)C2CC(C)(C(=O)O)CCC2(C)CCC13C (stereo unspecified)" measuredvalue=1.03
compound=CCNc1nc(Cl)nc(NCC)n1 measuredvalue=0.994
compound="NC[C@H]1O[C@H](O[C@H]2C(O[C@@H]3O[C@H](CO)[C@@H](O)[C@H]3O)[C@@H](O)[C@H](N)C[C@@H]2N)[C@H](N)[C@@H](O)[C@@H]1O (stereo partly specified)" measuredvalue=0.995
compound=O=C(NC1CCCCC1)NC1CCCCC1 measuredvalue=0.973
compound=COc1cccc(OC)c1C(=O)N[C@@H]1C(=O)N2[C@@H]1SC(C)(C)[C@@H]2C(=O)O measuredvalue=0.998
compound=Cc1onc(-c2c(Cl)cccc2Cl)c1C(=O)N[C@@H]1C(=O)N2[C@@H]1SC(C)(C)[C@@H]2C(=O)O measuredvalue=0.983
compound="C=C(C)[C@@H]1CC[C@]2(CO)CC[C@]3(C)[C@H](CCC4[C@@]5(C)CC[C@H](O)C(C)(C)C5CC[C@]43C)C12 (stereo partly specified)" measuredvalue=1.01
compound=COC(=O)[C@]1(C)CC[C@]2(C)CC[C@]3(C)C4=CC=C5C(=CC(=O)C(O)=C5C)[C@]4(C)CC[C@@]3(C)[C@@H]2C1 measuredvalue=0.615
